Below, each entry is listed with its recorded relative viability.
- Tested on: NCI-H2228
- TEST: relative viability (nuclei count vs DMSO), 5 days (fraction); higher = more cells survive
- REPORTED_CONDITIONS: first compound 0.03162 µM
Please reply with the number alone, leaving off any unit.

NC(=O)Nc1cc(-c2cccc(F)c2)sc1C(=O)N[C@H]1CCCNC1 [AZD7762] + N=C(N)NC(=N)NCCc1ccccc1 [Phenformin] (partner 250 µM) | 0.348
NC(=O)Nc1cc(-c2cccc(F)c2)sc1C(=O)N[C@H]1CCCNC1 [AZD7762] + COc1cccc2cc(-c3nc([C@H]4CC[C@H](C(=O)O)CC4)n4ncnc(N)c34)[nH]c12 [OSI-027] (partner 0.5 µM) | 0.847

Okay, next one:
Entry NC(=O)Nc1cc(-c2cccc(F)c2)sc1C(=O)N[C@H]1CCCNC1 [AZD7762] + Cc1nc(Nc2ncc(C(=O)Nc3c(C)cccc3Cl)s2)cc(N2CCN(CCO)CC2)n1 [Dasatinib] (partner 0.075 µM) , tested on NCI-H2228, has a reported relative viability of 0.606

---

- Test system: NCI-H1993
- TEST: relative viability (nuclei count vs DMSO), 5 days (fraction); higher = more cells survive
- REPORTED_CONDITIONS: first compound 1 µM
READOUT_NAME: relative viability

NC(=O)Nc1cc(-c2cccc(F)c2)sc1C(=O)N[C@H]1CCCNC1 [AZD7762] + CC1(C)CCC(c2ccc(Cl)cc2)=C(CN2CCN(c3ccc(C(=O)NS(=O)(=O)c4ccc(N[C@H](CCN5CCOCC5)CSc5ccccc5)c(S(=O)(=O)C(F)(F)F)c4)cc3)CC2)C1 [Navitoclax] (partner 0.5 µM) | 0.823
NC(=O)Nc1cc(-c2cccc(F)c2)sc1C(=O)N[C@H]1CCCNC1 [AZD7762] + CC(=O)Nc1cccc(-n2c(=O)n(C3CC3)c(=O)c3c(Nc4ccc(I)cc4F)n(C)c(=O)c(C)c32)c1 [Trametinib] (partner 0.02 µM) | 0.536

Recorded result, NC(=O)Nc1cc(-c2cccc(F)c2)sc1C(=O)N[C@H]1CCCNC1 [AZD7762] + COc1cccc2cc(-c3nc([C@H]4CC[C@H](C(=O)O)CC4)n4ncnc(N)c34)[nH]c12 [OSI-027] (partner 0.5 µM) , relative viability: 0.525

---

Below, each entry is listed with its recorded relative viability.
- System: LCLC-103H
- TEST: relative viability (nuclei count vs DMSO), 5 days (fraction); higher = more cells survive
- REPORTED_CONDITIONS: first compound 0.1265 µM
Please reply with the number alone, leaving off any unit.

O=C(O)c1ccc(-c2c[nH]c3ncc(-c4ccccc4)cc23)cc1C1CCCC1 + O=C(c1cc(Cc2n[nH]c(=O)c3ccccc23)ccc1F)N1CCN(C(=O)C2CC2)CC1 [Olaparib] (partner 8 µM) | 0.771
O=C(O)c1ccc(-c2c[nH]c3ncc(-c4ccccc4)cc23)cc1C1CCCC1 + COc1cccc2cc(-c3nc([C@H]4CC[C@H](C(=O)O)CC4)n4ncnc(N)c34)[nH]c12 [OSI-027] (partner 0.5 µM) | 0.554
O=C(O)c1ccc(-c2c[nH]c3ncc(-c4ccccc4)cc23)cc1C1CCCC1 + Cc1nc(NC(=O)N2CCC[C@H]2C(N)=O)sc1-c1ccnc(C(C)(C)C(F)(F)F)c1 [Alpelisib] (partner 2 µM) | 1.02

Okay, next one:
Recorded result, O=C(O)c1ccc(-c2c[nH]c3ncc(-c4ccccc4)cc23)cc1C1CCCC1 + N=C(N)NC(=N)NCCc1ccccc1 [Phenformin] (partner 250 µM) , relative viability: 0.34
